# system.tested: Bifunctional dihydrofolate reductase-thymidylate synthase (Plasmodium falciparum K1, UniProt P13922, C59R/I164L/N51I/S108N)
# method: Binding affinity towards mutant dihydrofolate reductase (N51I+C59R+S108N+I164L DHFR) of Plasmodium falciparum
pKi: −log10 of the molar value.
Cut-off 8 on pKi, inclusive. At or above means yes (1); below means no (0).

These solved cases illustrate the format of a correct answer.
# compound, group
rows = [
    ("NC1=NC(c2cccc(OCCCOc3cc(Cl)c(Cl)cc3Cl)c2)N(c2cccc(Cl)c2)C(N)=N1 (stereo unspecified)", "yes (1)"),
    ("CCc1nc(N)nc(N)c1-c1ccccc1", "no (0)"),
    ("CC(C)C1(C)N=C(N)N=C(N)N1c1cccc(Cl)c1 (stereo unspecified)", "no (0)"),
    ("COc1ccc(CCCc2nc(N)nc(N)c2-c2cccc(Cl)c2)cc1", "yes (1)"),
    ("CCCCCCc1nc(N)nc(N)c1-c1ccccc1", "yes (1)"),
]

Reported pKi reaches at least 8 for NC1=NC(c2cccc(Oc3ccccc3)c2)N(c2ccc(Cl)cc2)C(N)=N1 (stereo unspecified) ?
no (0)

====

# System: Vero
# method: Relative antiplasmodial activity to cytotoxicity in Plasmodium falciparum TM4/8.2 infected Vero cells
# Type: functional
value.type: Safety ratio

Answered cases to consult:
# molecule, Safety ratio
measured = [
    ("NC1=NC(c2cccc(Oc3ccccc3)c2)N(c2cccc(Cl)c2)C(N)=N1 (stereo not given)", ">22.7"),
    ("Nc1nc(N)c(-c2ccccc2)c(CCCc2ccccc2)n1", ">238"),
    ("CCCCCCCC1N=C(N)N=C(N)N1c1cccc(Cl)c1 (stereo not given)", ">1250"),
]

For each of the items listed, what is its Safety ratio?
1. CCCC1(C)N=C(N)N=C(N)N1c1cccc(Cl)c1 (stereo not given)
2. NC1=NC(c2ccc(Oc3ccccc3)cc2)N(c2ccc(Cl)cc2)C(N)=N1 (stereo not given)

>2778
>417

====

# system.tested: Bifunctional dihydrofolate reductase-thymidylate synthase (Plasmodium falciparum K1, UniProt P13922, A16V/S108T)
# Sequence (P13922 whole entry, looked up, stated change not applied): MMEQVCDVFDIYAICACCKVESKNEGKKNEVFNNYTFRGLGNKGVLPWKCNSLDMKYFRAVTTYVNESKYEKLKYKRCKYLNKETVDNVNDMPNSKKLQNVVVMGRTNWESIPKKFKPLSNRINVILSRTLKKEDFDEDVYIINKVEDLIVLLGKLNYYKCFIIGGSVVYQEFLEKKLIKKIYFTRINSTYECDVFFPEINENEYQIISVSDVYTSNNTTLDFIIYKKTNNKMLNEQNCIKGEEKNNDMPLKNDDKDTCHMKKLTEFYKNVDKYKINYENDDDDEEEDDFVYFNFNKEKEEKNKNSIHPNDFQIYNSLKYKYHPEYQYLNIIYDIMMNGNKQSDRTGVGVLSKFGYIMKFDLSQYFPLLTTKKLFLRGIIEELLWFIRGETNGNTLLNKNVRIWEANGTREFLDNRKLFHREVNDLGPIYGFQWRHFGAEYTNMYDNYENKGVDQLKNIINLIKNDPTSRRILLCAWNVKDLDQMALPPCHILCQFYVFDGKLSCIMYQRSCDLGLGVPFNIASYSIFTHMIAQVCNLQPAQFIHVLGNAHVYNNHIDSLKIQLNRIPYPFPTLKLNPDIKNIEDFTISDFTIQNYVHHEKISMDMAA
# method: Binding affinity towards mutant dihydrofolate reductase (A16V+S108T DHFR) of Plasmodium falciparum.
Exercise: for every item that follows, state its recorded pKi.
Numbers only, as −log10 of the molar value.

# compound, pKi
measured = [
    ("NC1=NC(c2cccc(Oc3ccc(Cl)cc3)c2)N(c2ccc(Cl)cc2)C(N)=N1 (stereo not drawn)", 8.12),
]

The following compounds each have a reported value; give each one's pKi.
1. NC1=NC(c2cccc(Oc3cccc(C(F)(F)F)c3)c2)N(c2cccc(Cl)c2)C(N)=N1 (stereo not drawn)
2. NC1=NC(c2cccc(OCc3ccccc3)c2)N(c2ccc(Cl)cc2)C(N)=N1 (stereo not drawn)

[8.19, 8.21]

====

Assign pKi to each entry below.
# system.tested: Bifunctional dihydrofolate reductase-thymidylate synthase (Plasmodium falciparum K1, UniProt P13922, C59R/I164L/S108N)
# Sequence (P13922 whole entry, looked up, stated change not applied): as above
# method: Binding affinity towards mutant dihydrofolate reductase (C59R+S108N+I164L DHFR) of Plasmodium falciparum
Give bare numbers, as −log10 of the molar value.

# molecule, pKi
data = [
    ("Nc1nc(N)c(-c2cccc(Cl)c2)c(CCCOC(=O)OCc2ccccc2)n1", 9.10),
    ("NC1=NC(c2cccc(OCCCOc3cc(Cl)c(Cl)cc3Cl)c2)N(c2cccc(Cl)c2)C(N)=N1 (centres undefined)", 8.66),
    ("Nc1nc(N)c(-c2cccc(Cl)c2)c(CCOCCCOc2ccccc2)n1", 8.89),
    ("Nc1nc(N)c(-c2ccccc2)c(CCCOC(=O)c2ccccc2)n1", 8.57),
    ("NC1=NC(c2ccccc2)N(c2cccc(Cl)c2)C(N)=N1 (centres undefined)", 6.66),
    ("NC1=NC(c2cccc(OCc3ccccc3)c2)N(c2cccc(Cl)c2)C(N)=N1 (centres undefined)", 8.44),
    ("NC1=NC(c2ccccc2)N(c2ccc(Cl)cc2)C(N)=N1 (centres undefined)", 5.73),
    ("Nc1nc(N)c(-c2ccccc2)c(CCCc2ccccc2)n1", 8.72),
]

With those in mind, consider the next molecule.
Given Nc1nc(N)c(-c2cccc(Cl)c2)c(CCCOC(=O)c2ccccc2)n1 , state its recorded pKi.
9.10
